Target: Recombinant KAT6A/MOZ (488-778) protein (Homo sapiens (Human))
Sequence (Q92794 488-778): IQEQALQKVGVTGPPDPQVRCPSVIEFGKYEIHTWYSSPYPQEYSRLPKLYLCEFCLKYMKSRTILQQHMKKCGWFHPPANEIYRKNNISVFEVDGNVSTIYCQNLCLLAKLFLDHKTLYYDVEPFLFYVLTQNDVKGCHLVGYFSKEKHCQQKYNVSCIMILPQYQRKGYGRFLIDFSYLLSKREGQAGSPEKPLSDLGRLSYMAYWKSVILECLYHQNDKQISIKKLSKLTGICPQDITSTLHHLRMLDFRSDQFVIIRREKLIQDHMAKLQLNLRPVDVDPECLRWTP
Assay: KAT6A AlphaLISA Inhibition Screening Assay
Assay type: biochemical
Conditions: read-out: Average Kat6A % inhibition @ 10 μM; 10 μM test compound
Protocol: The Kat6a inhibitory activity of test compounds was determined using an Alpha Screen-based detection method. The assay reactions were conducted in a volume of 10 μL in Alpha Plate, White 384 well plate (cat #6008280, Perkin Elmer). The enzymatic reactions were performed in assay buffer pH 8.0 (50 mM Tris-HCl, 0.1 mM EDTA, 0.01% Tween-20, 1 mM Dithiothreitol, 0.1% BSA (fatty acid free) and 330 nM TSA (Trichostatin A)). […]

| compound | inhibition at 10 µM [%] |
| --- | --- |
| CCc1ccc(OC)c(S(=O)(=O)Nc2noc3cc(Cn4cc(CNC(=O)OCCNC(C)=O)cn4)cc(OC)c23)c1 [Syn. Ex. 48] | 100 |
| C=C(F)C(=O)Nc1ccc(Oc2cc(OC)c3c(NS(=O)(=O)c4cc(CC)ccc4OC)noc3c2)nc1 [Syn. Ex. 107] | 100 |
| C#CC(=O)NCc1cnn(Cc2cc(OC)c3c(NS(=O)(=O)c4cc(CC)ccc4OCCO)noc3c2)c1 [Syn. Ex. 65] | 100 |
| C#CC(=O)N1Cc2cnn(Cc3cc(OC)c4c(NS(=O)(=O)c5cc(OC)ccc5OC)noc4c3)c2C1 [Syn. Ex. 4] | 100 |
| CCc1ccc(OC)c(S(=O)(=O)Nc2noc3cc(Cn4cc(CNC(C)=O)cn4)cc(OC)c23)c1 [Syn. Ex. 8] | 100 |
| CCc1ccc(OC)c(S(=O)(=O)Nc2noc3cc(Cn4cc(CNC(=O)OC)cn4)c4c(c23)OCCC4)c1 [Syn. Ex. 97] | 100 |
| COC(=O)NCc1cnn(Cc2cc(OC(F)F)c3c(NS(=O)(=O)c4c(OC)cccc4OC)noc3c2)c1 [Syn. Ex. 50] | 96 |
| C=C(F)C(=O)NCc1cnn(Cc2cc(OC)c3c(NS(=O)(=O)c4cc(CC)ccc4OCCNC(C)=O)noc3c2)c1 [Syn. Ex. 82] | 99 |
| C=C(F)C(=O)NCc1cnn(Cc2cc(OC)c3c(NS(=O)(=O)c4cc(CC)ccc4OCC#N)noc3c2)c1 [Syn. Ex. 43] | 98 |
| C=C(Cl)C(=O)NCc1cnn(Cc2cc(OC)c3c(NS(=O)(=O)c4cc(CC)ccc4OC)noc3c2)c1 [Syn. Ex. 35] | 100 |
| CC#CC(=O)NCc1cnn(Cc2cc(OC)c3c(NS(=O)(=O)c4cc(C)c(C)cc4OC)noc3c2)c1 [Syn. Ex. 27] | 100 |
| CCOc1cc2c(NS(=O)(=O)c3cc(CC)ccc3OC)noc2cc1Cn1cc(CNC(=O)OC)cn1 [Syn. Ex. 142] | 99 |
| C#CC(=O)N1Cc2cnn(Cc3cc(OC)c4c(NS(=O)(=O)c5cc(Cl)ccc5OC)noc4c3)c2C1 [Syn. Ex. 1] | 100 |
| CCc1ccc(OC)c(S(=O)(=O)Nc2noc3cc(Cn4cc(CNC(=O)NC)cn4)cc(OC)c23)c1 [Syn. Ex. 91] | 100 |
| C=C(F)C(=O)NCc1cnn(Cc2cc(OC)c3c(NS(=O)(=O)c4ccccc4OCc4ccccc4)noc3c2)c1 [Syn. Ex. 36] | 97 |
| CCc1ccc(OC)c(S(=O)(=O)Nc2noc3cc(Oc4ncc(CNC(=O)OC)o4)cc(OC)c23)c1 [Syn. Ex. 100] | 100 |
| C=C(F)C(=O)NCc1cnn(Cc2cc(OC)c3c(NS(=O)(=O)c4cc(CC)ccc4OCc4ccccc4)noc3c2)c1 [Syn. Ex. 92] | 100 |
| C=C(F)C(=O)NCc1cnn(Cc2cc(OC)c3c(NS(=O)(=O)c4cc(CC)ccc4OCc4nc[nH]n4)noc3c2)c1 [Syn. Ex. 80] | 100 |
| C#CC(=O)N1Cc2cn(Cc3cc(OC)c4c(NS(=O)(=O)c5cc(Cl)ccc5OC)noc4c3)nc2C1 [Syn. Ex. 2] | 100 |
| COc1ccc(C(C)(C)C)cc1S(=O)(=O)Nc1noc2cc(Cn3cc(CNS(C)(=O)=O)cn3)cc(OC)c12 [Syn. Ex. 33] | 100 |
| CCc1ccc(OCC(=O)OC)c(S(=O)(=O)Nc2noc3cc(Cn4cc(CNC(=O)OC)cn4)cc(OC)c23)c1 [Syn. Ex. 55] | 100 |
| C=C(F)C(=O)NCc1cnn(Cc2cc(OC)c3c(NS(=O)(=O)c4cc(CC)ccc4OCCN4CCOC4=O)noc3c2)c1 [Syn. Ex. 78] | 100 |
| CCc1ccc(OC)c(S(=O)(=O)Nc2noc3cc(Cn4cc(CNC(=O)OC)cn4)cc(OC)c23)c1 [Syn. Ex. 17] | 100 |
| CCc1ccc(OCC(=O)N2CCOCC2)c(S(=O)(=O)Nc2noc3cc(Cn4cc(CNC(=O)OC)cn4)cc(OC)c23)c1 [Syn. Ex. 66] | 100 |
| COC(=O)NCc1cnn(Cc2cc(OC)c3c(NS(=O)(=O)c4cc(C(F)F)ccc4OC)noc3c2)c1 [Syn. Ex. 135] | 97 |
| CCc1ccc(OC)c(S(=O)(=O)Nc2noc3cc(Oc4nc(CNC(=O)OC)cs4)cc(OC)c23)c1 [Syn. Ex. 104] | 92 |
| C=C(F)C(=O)NCc1cnn(Cc2cc(OC)c3c(NS(=O)(=O)c4cc(CC)ccc4OCC(N)=O)noc3c2)c1 [Syn. Ex. 45] | 99 |
| C=C(F)C(=O)NCc1cnn(Cc2cc(OC)c3c(NS(=O)(=O)c4cc(CC)ccc4OCCN)noc3c2)c1 [Syn. Ex. 76] | 96 |
| CCc1ccc(OC)c(S(=O)(=O)Nc2noc3cc(Oc4ncc(CN[S+]([O-])C(C)(C)C)o4)cc(OC)c23)c1 (stereo not drawn) [Syn. Ex. 98] | 92 |
| CC#CC(=O)NCc1ccc(Oc2cc(OC)c3c(NS(=O)(=O)c4cc(CC)ccc4OC)noc3c2)nc1 [Syn. Ex. 57] | 100 |

Provenance of the data: patent US20250122182A1
